Reported pKi values for a set of molecules
system tested: Bovine pancreatic trypsin (Bos taurus, UniProt P00760)
Construct: purchased Sigma Aldrich; host or cells: bovine pancreas
Sequence (P00760 24-246): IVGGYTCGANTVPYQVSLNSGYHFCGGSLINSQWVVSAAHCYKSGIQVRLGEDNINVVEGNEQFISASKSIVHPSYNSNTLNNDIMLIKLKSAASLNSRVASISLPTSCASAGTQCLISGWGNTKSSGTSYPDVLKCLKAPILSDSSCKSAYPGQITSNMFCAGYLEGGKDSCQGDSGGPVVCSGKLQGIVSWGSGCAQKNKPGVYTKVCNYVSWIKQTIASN
protocol: biochemical
Type: biochemical
details: Ki1 trypsin
Hey, just a heads up that pKi is the negative log base 10 of the concentration in molar.

These solved cases illustrate the format of a correct answer.
1) Nc1ccc(N)c2c1C(=O)c1c(N)ccc(N)c1C2=O 4.22
2) O=C1c2ccc(O)cc2C(=O)c2c1ccc(O)c2O 5.40

stdin: State its pKi on Bovine pancreatic trypsin (Bos taurus, UniProt P00760): O=C1c2c(O)cccc2Cc2cccc(O)c21
stdout: 6.22

====

Reported solubility values for a set of compounds
protocol: physchem
details: pH 9, aqueous with cosolvent or surfactant or cyclodextrin, kinetic from dmso stock

These solved cases illustrate the format of a correct answer.
compound	data value
O=Cc1ccc2c(c1)C(=O)c1ccccc1C2=O [Compound 6A50]	> 10 µM
O=C1c2ccc(O)cc2C(=O)c2c1ccc(O)c2O [Compound 6A47]	> 10 µM

stdin: Item O=c1[nH]c2cc([N+](=O)[O-])c([N+](=O)[O-])cc2[nH]c1=O [Compound 6A29] has what recorded solubility?
stdout: < 10 µM

stdin: Same read-out for Nc1ccc2c(c1[N+](=O)[O-])C(=O)c1ccccc1C2=O [Compound 6A35] ?
stdout: < 10 µM

stdin: Same read-out for Nc1ccc2c(c1)C(=O)c1ccccc1C2=O [Compound 6A27] ?
stdout: < 10 µM

Data provenance is patent US8778876B2.
